Values from ChEMBL document CHEMBL4184192

assayTarget: 5-hydroxytryptamine receptor 1A (Rattus norvegicus)
Sequence (P19327 whole entry): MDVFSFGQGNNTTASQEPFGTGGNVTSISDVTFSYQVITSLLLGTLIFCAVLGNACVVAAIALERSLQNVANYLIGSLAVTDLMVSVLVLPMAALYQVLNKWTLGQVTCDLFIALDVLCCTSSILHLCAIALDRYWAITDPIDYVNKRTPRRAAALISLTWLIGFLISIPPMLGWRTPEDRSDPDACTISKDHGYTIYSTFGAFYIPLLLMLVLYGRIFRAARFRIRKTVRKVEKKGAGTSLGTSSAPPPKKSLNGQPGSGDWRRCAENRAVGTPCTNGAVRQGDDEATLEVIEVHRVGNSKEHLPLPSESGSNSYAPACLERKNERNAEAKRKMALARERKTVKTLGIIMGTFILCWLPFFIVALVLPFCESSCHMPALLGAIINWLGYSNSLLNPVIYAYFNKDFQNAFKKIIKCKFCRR
procedureSummary: Antagonist activity at 5-HT1A receptor in Sprague-Dawley rat hippocampal membranes assessed as inhibition of 8-OH-DPAT-induced receptor activation after 90 mins by microbeta scintillation counting based [35S]GTPgammaS binding assay
Assay type: functional
Items are presented alongside their recorded pEC50.
Lab note: report pEC50 as minus log10 of the concentration in molar units, number only.

Summary: COc1ccccc1N1CCN(CCCOc2ccc3c(C)cc(=O)oc3c2C(C)=O)CC1 , 5-hydroxytryptamine receptor 1A (Rattus norvegicus), pEC50 = 6.20

Reported pEC50 (5-hydroxytryptamine receptor 1A (Rattus norvegicus)) for entry CC(=O)c1c(OCCCN2CCN(c3ccccc3Br)CC2)ccc2c(C)cc(=O)oc12 is 6.90
